# Target System: von Willebrand factor full length (Homo sapiens, UniProt P04275 SEQ:764-2813)
# Run Description: filter; 45% bound at 100 nM
# Cond: tags: Calbiochem 681300
pKd: −log10 of the molar value.
pKd by entry:
Outcome Measure: pKd

GGCGTGCAGTGCCTUCGGCCGTGCGGTGCCTCCGTCACGCC (ssDNA, 2'-OMe at 15 (mU); 3'-idT) [ARC1208] = 8.70
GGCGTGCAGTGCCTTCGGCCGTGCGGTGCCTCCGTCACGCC (ssDNA, 2'-OMe at 11; 3'-idT) [ARC1204] = 8.70

The measured values listed here are drawn from patent US20060264369.
